test system: HepG2; experiment: cell viability relative to DMSO; higher = less toxic; details: 72 h; 10000 nM
Each entry below carries its reported cell viability.

- compound: "Oc1cc2c(cc1O)C(c1ccccc1)CNCC2 (stereo not drawn)"
  subject-of-test: "HepG2"
  measurement-units: "%"
  cell viability: 107
- compound: "Cc1cc(Oc2ccc3nc(COc4ccc(CC5SC(=O)NC5=O)cc4)n(C)c3c2)cc(C)c1N (stereo not drawn)"
  subject-of-test: "HepG2"
  measurement-units: "%"
  cell viability: 103
- compound: "CCCC[C@H]1C(=O)N(c2ccccc2)N(c2ccc(O)cc2)C1=O"
  subject-of-test: "HepG2"
  measurement-units: "%"
  cell viability: 7.9
- compound: "CC(C)C[C@H](NC(=O)CNC(=O)c1cc(Cl)ccc1Cl)B1OC(=O)C(CC(=O)O)(CC(=O)O)O1 [ixazomib-citrate]"
  subject-of-test: "HepG2"
  measurement-units: "%"
  cell viability: 0.3
- compound: "Nc1ncnc2c1ncn2[C@H]1O[C@@H](C(=O)N2CCN(CC(=O)Nc3cccc4c3CNC4=O)CC2)[C@H](O)[C@@H]1O"
  subject-of-test: "HepG2"
  measurement-units: "%"
  cell viability: 93.9
- compound: "O=C(Nc1cc(C(F)(F)F)cc(C(F)(F)F)c1)c1cnc(Cl)nc1C(F)(F)F"
  subject-of-test: "HepG2"
  measurement-units: "%"
  cell viability: 92.6
- compound: "C[C@@H]1C[C@H]2[C@@H]3CCC4=CC(=O)C=C[C@]4(C)[C@@]3(Cl)[C@@H](O)C[C@]2(C)[C@@]1(OC(=O)c1ccco1)C(=O)CCl [MOMETASONE FUROATE]"
  subject-of-test: "HepG2"
  measurement-units: "%"
  cell viability: 105
- compound: "C[C@@H]1CC(=O)NN=C1c1ccc(NN=C(C#N)C#N)cc1"
  subject-of-test: "HepG2"
  measurement-units: "%"
  cell viability: 88.4

* * *

test system: Vero E6; assay: cell viability relative to DMSO; higher = less toxic; settings: 72 h; 100 nM
Each entry below carries its reported cell viability.
experimental-endpoint: cell viability (%)

- compound: "CCCCCCCCCCCCCC(=O)OC(C)C [isopropyl-myristate]"
  number: 91.5
- compound: "N[C@@H](Cc1ccc(O)cc1)C(=O)O [plovamer-acetate]"
  number: 96.3
- compound: "Cc1ccccc1NC(=N)Nc1ccccc1C [ditolylguanidine]"
  number: 95.6
- compound: "CCOc1cc(N2CCC(O)CC2)ccc1Nc1ncc2c(n1)N(C)c1ccccc1C(=O)N2C [XMD8-92]"
  number: 99.7
- compound: "N#Cc1ncccn1 [2-cyanopyrimidine]"
  number: 97
- compound: "CC(=O)N[C@H]1[C@H]([C@H](O)[C@H](O)CO)OC(C(=O)O)=C[C@@H]1NC(=N)N [zanamivir]"
  number: 90.6
- compound: "CCCCC/C=C\\C/C=C\\C/C=C\\C/C=C\\CCCC(=O)Nc1ccc(O)cc1 [AM-404]"
  number: 92.9
- compound: "CCCC(=O)O [sodium-butyrate]"
  number: 102
- compound: "O=C1O[C@H]([C@@H](O)CO)C(O)=C1O [ASCORBIC ACID]"
  number: 106
- compound: "Nc1nc(N)nc(NC2CC2)n1 [cyromazine]"
  number: 93
- compound: "O=C1NCN(c2ccccc2)C12CCN(CCCC(c1ccc(F)cc1)c1ccc(F)cc1)CC2 [fluspirilene]"
  number: 103
- compound: "O=C(O)[C@@H](S)[C@@H](S)C(=O)O [dimercaptosuccinic-acid]"
  number: 100
- compound: "C=C1C(=O)O[C@@H]2[C@H]3O[C@]3(C)CC/C=C(\\C)CC[C@@H]12 [parthenolide-(alternate-stereo)]"
  number: 102
- compound: "Cc1onc(-c2ccccc2)c1-c1ccc(S(N)(=O)=O)cc1 [valdecoxib]"
  number: 106
- compound: "c1coc(-c2nnc3sc(C4CCCCC4)nn23)c1 [cardionogen-1]"
  number: 95.5
- compound: "CC(C)NCC(O)c1ccccc1Cl (stereo unspecified) [clorprenaline]"
  number: 99.8
- compound: "CCCC[C@H]1C(=O)N(c2ccccc2)N(c2ccc(O)cc2)C1=O [oxyphenbutazone]"
  number: 109
- compound: "NCCC(=O)N[C@@H](Cc1c[nH]cn1)C(=O)O [carnosine]"
  number: 95
- compound: "Nc1ccc(S(N)(=O)=O)cc1 [sulfanilamide]"
  number: 83.1
- compound: "O=C(/C=C/c1ccc(O)cc1)c1ccc(O)cc1O [isoliquiritigenin]"
  number: 93.6
- compound: "O=CN1CCC(C(=O)NCCN2CCC(=C3c4ccccc4C=Cc4ccccc43)CC2)CC1 [AT-1015]"
  number: 110
- compound: "O=S1(=O)c2cccc3cccc(c23)N1CCCN1CCN(c2ccc(F)cc2)CC1 [fananserin]"
  number: 98.1
- compound: "NC(=O)[C@@H]1CC[C@@H]2CN1C(=O)N2OS(=O)(=O)O [avibactam]"
  number: 97.6
- compound: "C[C@H](NC(=O)/C(C#N)=C/c1ccc(O)c(O)c1)c1ccccc1 [tyrphostin-AG-835]"
  number: 98.5
- compound: "COC(=O)C1=C(C)NC(C)=C([N+](=O)[O-])[C@@H]1c1ccccc1C(F)(F)F (racemic) [BAY-K-8644-(+/-)]"
  number: 99.4
- compound: "N=C(Nc1ccccc1)Nc1ccccc1 [diphenylguanidine]"
  number: 103
- compound: "FC(F)(F)c1ccc(CNc2ccc(Cc3c[nH]c4ncc(Cl)cc34)cn2)cn1 [pexidartinib]"
  number: 103
- compound: "Cc1noc(-c2ccc(-c3ccc(CC(=O)O)cc3)cc2)c1NC(=O)O[C@H](C)c1ccccc1 [AM095]"
  number: 91.4
- compound: "c1cnc(NCc2ccc(CNc3ncccn3)cc2)nc1 [MSX-122]"
  number: 100
- compound: "O=c1cc(-c2ccc(O)c(O)c2)oc2cc(O)cc(O)c12 [luteolin]"
  number: 94.7
- compound: "Nc1ccccc1NC(=O)c1ccc(CNc2nccc(-c3cccnc3)n2)cc1 [mocetinostat]"
  number: 78
- compound: "O=C(Nc1cccc2cccnc12)c1ccc(N2C(=O)[C@@H]3[C@H](C2=O)[C@@H]2C=C[C@H]3C2)cc1 [endo-IWR-1]"
  number: 97.6
- compound: "CC(C)[C@@H](CN1CC[C@@](C)(c2cccc(O)c2)[C@@H](C)C1)NC(=O)[C@H]1Cc2ccc(O)cc2CN1 [JDTic]"
  number: 97.6
- compound: "CC1(C)CCC(C)(C)c2cc(Cn3cccn3)c(/C=C/c3ccc(C(=O)O)cc3)cc21 [palovarotene]"
  number: 100
- compound: "CC[C@@H]([C@H](C)O)n1ncn(-c2ccc(N3CCN(c4ccc(OC[C@@H]5CO[C@@](Cn6cncn6)(c6ccc(F)cc6F)C5)cc4)CC3)cc2)c1=O [posaconazole]"
  number: 93.4
- compound: "CCN1CCC[C@H]1CNC(=O)c1c(O)c(Cl)cc(Cl)c1OC [raclopride]"
  number: 94.7

* * *

tested on: Calu-3; experiment: drug sensitivity score (DSS) for viability; higher = more toxic; extreme values may be limits of the assay; details: 72 h
Each entry below carries its reported drug sensitivity score.
experimental-endpoint: drug sensitivity score

- molecule: "C1=Cc2cccc(OCC3CNCCO3)c2C1 (stereo not given)"
  experimental-endpoint: "drug sensitivity score"
  number: 0
- molecule: "CN(C)C(=S)SC(=S)N(C)C [tetramethylthiuram-monosulfide]"
  experimental-endpoint: "drug sensitivity score"
  number: 8.4
- molecule: "Cc1c(C2CCN(CCc3ccccc3)CC2)noc1-c1ccc(Cl)cc1"
  experimental-endpoint: "drug sensitivity score"
  number: 0.3
- molecule: "O=C1C(Cl)=C(NCCN2CCOCC2)C(=O)c2ncccc21"
  experimental-endpoint: "drug sensitivity score"
  number: 4.7
- molecule: "COc1nccc(-c2c(-c3ccc(F)cc3)ncn2C2CCNCC2)n1"
  experimental-endpoint: "drug sensitivity score"
  number: 0
- molecule: "Cn1ncnc1COc1nn2c(-c3cc(F)ccc3F)nnc2cc1C(C)(C)C"
  experimental-endpoint: "drug sensitivity score"
  number: 0
- molecule: "CC(=O)c1c(C)c2cnc(Nc3ccc(N4CCNCC4)cn3)nc2n(C2CCCC2)c1=O"
  experimental-endpoint: "drug sensitivity score"
  number: 0
- molecule: "CN=c1nc(-c2ccccc2)n(-c2ccccc2)s1"
  experimental-endpoint: "drug sensitivity score"
  number: 0
- molecule: "CNC(=O)c1ccc(C)c(-n2c(C)cc(OCc3ccc(F)cc3F)c(Br)c2=O)c1"
  experimental-endpoint: "drug sensitivity score"
  number: 5.2
- molecule: "CCOc1cc(N2CCC(O)CC2)ccc1Nc1ncc2c(n1)N(C)c1ccccc1C(=O)N2C"
  experimental-endpoint: "drug sensitivity score"
  number: 0.5

* * *

tested on: HepG2; test: cell viability relative to DMSO; higher = less toxic; settings: 72 h; 10000 nM
Each entry below carries its reported cell viability.
experimental-endpoint: cell viability (%)

- compound: "CC(C)NCC(O)c1ccc([N+](=O)[O-])cc1 (centres undefined)"
  number: 106
- compound: "C=C1/C(=C\\C=C2/CCC[C@]3(C)[C@@H]([C@H](C)/C=C/C=C/C(O)(CC)CC)CC[C@@H]23)C[C@@H](O)C[C@@H]1O"
  number: 99.4
- compound: "COCC[n+]1c2c(n(Cc3cnccn3)c1C)C(=O)c1ccccc1C2=O"
  number: 0.4
- compound: "COc1ccc2cc3[n+](cc2c1OC)CCc1cc2c(cc1-3)OCO2"
  number: 30.6
- compound: "O=C(NOCCO)c1ccc2cncn2c1Nc1ccc(I)cc1F"
  number: 12.4
- compound: "C=C1C(=O)O[C@@H]2/C=C(\\C)CC/C=C(\\C)CC[C@@H]12 [costunolide]"
  number: 91.5
- compound: "Nc1ncnc2c1ncn2[C@@H]1O[C@H](COP(=O)(O)OP(=O)(O)OP(=O)(O)OP(=O)(O)OC[C@H]2O[C@@H](n3cnc4c(N)ncnc43)[C@H](O)[C@@H]2O)[C@@H](O)[C@H]1O [diadenosine-tetraphosphate]"
  number: 104
- compound: "Cc1ccsc1C(=CCCN1CCC[C@@H](C(=O)O)C1)c1sccc1C"
  number: 98.6
- compound: "COc1cc(NC(C)CCCN)c2ncccc2c1 (centres undefined)"
  number: 80.3

Where do the numbers come from? From the supplement of paper PMC13380429.
